These measurements were taken from patent US11186588B2.

- experimental-details: Pharmacokinetics test in rats (oral administration)
- Type: in vivo, LEW/CrlCrlj rats
- condition-set: male, LEW/CrlCrlj, rat, plasma, 10 mg/kg, oral 2 mg/mL solution at 5 mL/kg, mean n = 4, read-out: MRT
reported-metric: MRT (h)
Numeric only. Scale: h

## Input Could you share which MRT value was measured for CC(=O)Nc1ccc(C2=NN(Cc3cccnc3)c3nnc(C)n3-c3sc(C)c(C)c32)cc1 ?
## Output 1.82

====

- experimental-details: Pharmacokinetics test in rats (oral administration)
- Assay type: in vivo, LEW/CrlCrlj rats
- condition-set: male, LEW/CrlCrlj, rat, plasma, 10 mg/kg, oral 2 mg/mL solution at 5 mL/kg, mean n = 4
reported-metric: AUC(0-t) (ng·h/mL)
Numeric only. Scale: ng·h/mL

## Input Could you share which AUC(0-t) value was measured for CC(=O)Nc1ccc(C2=NN(Cc3cccnc3)c3nnc(C)n3-c3sc(C)c(C)c32)cc1 [Example 71] ?
## Output 42.3

====

Entries and their inhibition at 10 µM values follow.
- assayed-system: Recombinant BRD4 (44-168) protein (Homo sapiens (Human), UniProt O60885)
- experimental-details: BRD4-H4KAc4 binding assay (amplified luminescence proximity homogeneous assay, AlphaScreen)
- condition-set: 10 uM
Numeric only. Scale: %

## Input Could you share which inhibition at 10 µM value was measured for CCNC(=O)c1ncccc1CN1N=C(c2ccc(Cl)cc2)c2c(sc(C)c2C)-n2c(C)nnc21 ?
## Output 13.3

## Input Could you share which inhibition at 10 µM value was measured for Cc1sc2c(c1C)C(c1ccccc1)=NN(Cc1ccncc1)c1nnc(C)n1-2 ?
## Output 100

## Input Could you share which inhibition at 10 µM value was measured for COc1ccc(CN2N=C(c3ccc(Cl)cc3)c3cc(C)sc3-n3c(C)nnc32)cc1 ?
## Output 100

## Input Could you share which inhibition at 10 µM value was measured for Cc1sc2c(c1C)C(c1ccc(Cl)cc1)=NN(Cc1ccc(Cl)nc1)c1nnc(C)n1-2 ?
## Output 100

====

- experimental-details: Pharmacokinetics test in rats (oral administration)
- Format: in vivo, LEW/CrlCrlj rats
- condition-set: oral 2 mg/mL solution at 5 mL/kg, mean n = 4
Entries and their Cmax values follow.
Numeric only. Scale: ng/mL

Observe how each entry below is paired with its result.
CC(=O)Nc1ccc(C2=NN(Cc3cccnc3)c3nnc(C)n3-c3sc(C)c(C)c32)cc1.CC(=O)Nc1ccc(C2=NN(Cc3cccnc3)c3nnc(C)n3-c3sc(C)c(C)c32)cc1.O=C(O)CCC(=O)O [0.5 Succinate of Example 71]	79.8
CC(=O)Nc1ccc(C2=NN(Cc3cccnc3)c3nnc(C)n3-c3sc(C)c(C)c32)cc1.O=C(O)/C=C\C(=O)O [1 Maleate of Example 71]	80.1
CC(=O)Nc1ccc(C2=NN(Cc3cccnc3)c3nnc(C)n3-c3sc(C)c(C)c32)cc1.CC(=O)Nc1ccc(C2=NN(Cc3cccnc3)c3nnc(C)n3-c3sc(C)c(C)c32)cc1.O=C(O)/C=C/C(=O)O [0.5 Fumarate of Example 71]	15.70
CC(=O)Nc1ccc(C2=NN(Cc3cccnc3)c3nnc(C)n3-c3sc(C)c(C)c32)cc1.Cc1ccc(S(=O)(=O)O)cc1 [1 Tosylate of Example 71]	62.1

Now look at this entry.
## Input Could you share which Cmax value was measured for CC(=O)Nc1ccc(C2=NN(Cc3cccnc3)c3nnc(C)n3-c3sc(C)c(C)c32)cc1.Cl [1 Hydrochloride of Example 71] ?
## Output 111.0

====

Entries and their Concentration (ng/mL), sampling time 0.5 h values follow.
- experimental-details: Pharmacokinetics test in rats (oral administration)
- Assay type: in vivo, LEW/CrlCrlj rats
- condition-set: plasma, 0.5 h after oral 2 mg/mL solution at 5 mL/kg, mean n = 4
Numeric only. Scale: ng/mL

CC(=O)Nc1ccc(C2=NN(Cc3cccnc3)c3nnc(C)n3-c3sc(C)c(C)c32)cc1.CC(=O)Nc1ccc(C2=NN(Cc3cccnc3)c3nnc(C)n3-c3sc(C)c(C)c32)cc1.O=C(O)CCC(=O)O [0.5 Succinate of Example 71]	79.8
CC(=O)Nc1ccc(C2=NN(Cc3cccnc3)c3nnc(C)n3-c3sc(C)c(C)c32)cc1.Cc1ccc(S(=O)(=O)O)cc1 [1 Tosylate of Example 71]	62.1
CC(=O)Nc1ccc(C2=NN(Cc3cccnc3)c3nnc(C)n3-c3sc(C)c(C)c32)cc1.O=C(O)/C=C\C(=O)O [1 Maleate of Example 71]	80.1
CC(=O)Nc1ccc(C2=NN(Cc3cccnc3)c3nnc(C)n3-c3sc(C)c(C)c32)cc1.CC(=O)Nc1ccc(C2=NN(Cc3cccnc3)c3nnc(C)n3-c3sc(C)c(C)c32)cc1.O=C(O)/C=C/C(=O)O [0.5 Fumarate of Example 71]	15.70

Now look at this entry.
## Input Could you share which Concentration (ng/mL), sampling time 0.5 h value was measured for CC(=O)Nc1ccc(C2=NN(Cc3cccnc3)c3nnc(C)n3-c3sc(C)c(C)c32)cc1.Cl [1 Hydrochloride of Example 71] ?
## Output 111.0

====

- assayed-system: Recombinant BRD4 (44-168) protein (Homo sapiens (Human), UniProt O60885)
- experimental-details: BRD4-H4KAc4 binding assay (amplified luminescence proximity homogeneous assay, AlphaScreen)
- condition-set: 10 uM
reported-metric: inhibition at 10 µM (%)
Numeric only. Scale: %

Observe how each entry below is paired with its result.
Cc1sc2c(c1C)C(c1ccc(Cl)cc1)=NN(Cc1cccnc1)c1nnc(C)n1-2	100
Cc1sc2c(c1C)C(c1ccc(Cl)cc1)=NN(Cc1cccnc1Cl)c1nnc(C)n1-2	100
Cc1sc2c(c1C)C(c1ccccc1)=NN(Cc1cccnc1)c1nnc(C)n1-2	101
Cc1sc2c(c1C)C(c1ccc(Cl)cc1)=NN(Cc1ccc(Cl)cn1)c1nnc(C)n1-2	100
Cc1sc2c(c1C)C(c1ccc(Cl)cc1)=NN(Cc1ccccc1C(F)(F)F)c1nnc(C)n1-2	69.7

## Input Could you share which inhibition at 10 µM value was measured for Cc1sc2c(c1C)C(c1ccc(Cl)cc1)=NN(Cc1ccccn1)c1nnc(C)n1-2 ?
## Output 100

## Input Could you share which inhibition at 10 µM value was measured for Cc1sc2c(c1C)C(c1ccc(Cl)cc1)=NN(Cc1cccnc1[N+](=O)[O-])c1nnc(C)n1-2 ?
## Output 100

## Input Could you share which inhibition at 10 µM value was measured for COc1ncccc1CN1N=C(c2ccc(Cl)cc2)c2c(sc(C)c2C)-n2c(C)nnc21 ?
## Output 100

====

- experimental-details: Pharmacokinetics test in rats (oral administration)
- Assay type: in vivo, LEW/CrlCrlj rats
- condition-set: plasma, 6 h after oral 2 mg/mL solution at 5 mL/kg, mean n = 4
Rule: Concentration (ng/mL), sampling time 6 h under 2 ng/mL gives 0, otherwise 1.

These recorded examples may help you get a feel for the data.
CC(=O)Nc1ccc(C2=NN(Cc3cccnc3)c3nnc(C)n3-c3sc(C)c(C)c32)cc1.Cl [1 Hydrochloride of Example 71]	0
CC(=O)Nc1ccc(C2=NN(Cc3cccnc3)c3nnc(C)n3-c3sc(C)c(C)c32)cc1.CC(=O)Nc1ccc(C2=NN(Cc3cccnc3)c3nnc(C)n3-c3sc(C)c(C)c32)cc1.O=C(O)/C=C/C(=O)O [0.5 Fumarate of Example 71]	1
CC(=O)Nc1ccc(C2=NN(Cc3cccnc3)c3nnc(C)n3-c3sc(C)c(C)c32)cc1.Cc1ccc(S(=O)(=O)O)cc1 [1 Tosylate of Example 71]	1
CC(=O)Nc1ccc(C2=NN(Cc3cccnc3)c3nnc(C)n3-c3sc(C)c(C)c32)cc1.O=C(O)/C=C\C(=O)O [1 Maleate of Example 71]	0

Next item in the queue.
## Input Please check the record CC(=O)Nc1ccc(C2=NN(Cc3cccnc3)c3nnc(C)n3-c3sc(C)c(C)c32)cc1.CC(=O)Nc1ccc(C2=NN(Cc3cccnc3)c3nnc(C)n3-c3sc(C)c(C)c32)cc1.O=C(O)CCC(=O)O [0.5 Succinate of Example 71] and state if its Concentration (ng/mL), sampling time 6 h is at or above 2 ng/mL.
## Output 0

====

- Test system: NF-κB
- experimental-details: NF-κB reporter gene assay (TNF-α stimulated A549/NF-κB-luc cells)
- Format: cell-based
- condition-set: Homo sapiens, TNF-α stimulation
reported-metric: pIC50
Hey, just a heads up that pIC50 is the negative log base 10 of the concentration in molar.

Cc1sc2c(c1C)C(c1ccc(Cl)cc1)=NN(Cc1ncccc1Cl)c1nnc(C)n1-2	5.98
Cc1sc2c(c1C)C(c1ccc(N)cc1)=NN(Cc1cncc(O)c1)c1nnc(C)n1-2	6.54
Cc1sc2c(c1C)C(c1ccccc1)=NN(Cc1cccnc1F)c1nnc(C)n1-2	6.53
Cc1sc2c(c1C)C(c1ccc(Cl)cc1)=NN(Cc1cccnc1F)c1nnc(C)n1-2	7.30
Cc1sc2c(c1C)C(c1ccc(Cl)cc1)=NN(Cc1ncccc1F)c1nnc(C)n1-2	6.80

## Input Could you share which pIC50 value was measured for Cc1sc2c(c1C)C(c1ccc(Cl)cc1)=NN(Cc1cccnc1[N+](=O)[O-])c1nnc(C)n1-2 ?
## Output 5.95

## Input Could you share which pIC50 value was measured for Cc1sc2c(c1C)C(c1ccc(Cl)cc1)=NN(Cc1cccnc1C(F)(F)F)c1nnc(C)n1-2 ?
## Output 5.90

## Input Could you share which pIC50 value was measured for Cc1sc2c(c1C)C(c1ccc(Cl)cc1)=NN(Cc1cccnc1N)c1nnc(C)n1-2 ?
## Output 7.33
